Origin of measurements: patent US20200024320A1

Target: T1, MBP-RAMP2 ECD [L106R]-(GS)5-CLR ECD-H6 fusion protein (human, UniProt O60895 43-143; Q16602 29-144)
T1 chain: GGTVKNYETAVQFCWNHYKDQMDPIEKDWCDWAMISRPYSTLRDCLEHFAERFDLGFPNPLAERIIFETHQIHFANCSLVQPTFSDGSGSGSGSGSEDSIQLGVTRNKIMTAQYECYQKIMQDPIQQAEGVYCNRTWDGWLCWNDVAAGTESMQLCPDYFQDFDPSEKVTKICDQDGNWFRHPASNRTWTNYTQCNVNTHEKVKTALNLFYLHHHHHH
Experiment: AlphaLISA/AlphaScreen competition, RAMP2-CLR ECD
pIC50: −log10 of the molar value. Where no end group is shown, it is not given here.
measuredQuantity: pIC50

* DKDNVAPRSKISPQGY-NH2 (also called WT (AM(37-52)NH2 scaffold)) [AM(37-52)NH2] | 4.82 to 5.30
